target: Cytochrome P450 2C9 (Homo sapiens) (UniProt P11712); assay: Cytochrome panel assay with activity outcomes; details: recombinant CYP, pro-luciferin dealkylation, luminescence, p450-cyp2c9; series mostly up to 57.1 µM
Sequence (P11712 whole entry, looked up): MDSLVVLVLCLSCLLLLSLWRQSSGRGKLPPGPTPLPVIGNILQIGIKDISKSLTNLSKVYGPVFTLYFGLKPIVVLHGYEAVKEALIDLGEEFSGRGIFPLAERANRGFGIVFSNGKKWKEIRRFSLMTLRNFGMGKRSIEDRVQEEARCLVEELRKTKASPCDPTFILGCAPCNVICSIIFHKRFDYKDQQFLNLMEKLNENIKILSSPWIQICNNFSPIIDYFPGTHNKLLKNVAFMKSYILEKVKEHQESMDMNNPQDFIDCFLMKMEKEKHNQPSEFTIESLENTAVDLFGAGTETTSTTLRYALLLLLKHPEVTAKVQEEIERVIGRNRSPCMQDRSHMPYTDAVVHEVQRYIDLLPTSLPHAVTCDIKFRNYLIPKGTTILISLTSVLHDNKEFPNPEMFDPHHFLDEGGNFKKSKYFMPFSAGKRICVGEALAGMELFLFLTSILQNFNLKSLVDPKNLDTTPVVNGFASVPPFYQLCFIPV
The campaign covered roughly 16,000 compounds. About 4,000 (25%) were called active. Inconclusive results (about 26%) are left out. Calls come from the whole dose curve; as a rule, active = well fitted curve in the direction sought with a large enough effect; inconclusive = small, poorly fitted or top-dose-only effect, or effect the other way; inactive = no such curve, though single readings can be large or run the other way. A selection follows.
Assign a class; possible classes are 1 (active), 0 (inactive)

> print(dat)
                                   molecule  label
1             O=C(O)c1cc(=O)cc(C(=O)O)[nH]1      0
2  COc1ccc(C(=O)OC(C)CN2CCN(C)CC2)cc1OC (stereo unspecified)      0
3  OC(COCC1COc2ccccc2O1)CN1CCc2ccccc2C1 (stereo unspecified)      0

Would you mind telling me which call this test gave "NCCCCNS(=O)(=O)c1ccc2c(Cl)cccc2c1" ?
1

Would you mind telling me which call this test gave "N#Cc1cccc(NC(=O)N2CCC3(CC2)CCN(C(=O)c2csnn2)CC3)c1" ?
0

Would you mind telling me which call this test gave CC1CCCC(C)N1CC(O)COCC1COc2ccccc2O1 (stereo unspecified) ?
0

Would you mind telling me which call this test gave "COc1ccc(C(=O)Nc2cccc3c2C(=O)NC3=O)cc1S(=O)(=O)N1CCOCC1" ?
0

Would you mind telling me which call this test gave "O=C(N/N=C/c1cccc(OC2CSC2)c1)c1ccccc1O" ?
0

Would you mind telling me which call this test gave "CCCCCCCNS(=O)(=O)c1cccc2c(Cl)cccc12" ?
0

Would you mind telling me which call this test gave "CCN(CC)S(=O)(=O)c1cc(C(=O)Nc2ccccc2C(=O)O)ccc1OC" ?
1

Would you mind telling me which call this test gave "c1ccc(-c2cccc(N3CC[C@@]4(CCCNC4)C3)c2)cc1" ?
0
